Below, each entry is listed alongside its reported glycan array binding signal (z-score).
target: Neu5Ac(a2-3)Gal(b1-4)[Fuc(a1-3)]GlcNAc(b1-3)Gal(b1-4)[Fuc(a1-3)]GlcNAc(b1-3)Gal(b1-4)[Fuc(a1-3)]GlcNAc; test: glycan array binding signal (z-score within array); higher = stronger binding; settings: glycan notation: IUPAC condensed, linker removed
The entries come from a sample that favours the strongest signals as a whole.
Format: numeric value only, no unit, no commentary.

These solved cases illustrate the format of a correct answer.
Binder: HMGB1 (Homo sapiens), P09429 (protein) MGKGDPKKPRGKMSSYAFFVQTCREEHKKKHPDASVNFSEFSKKCSERWKTMSAKEKGKFEDMAKADKARYEREMKTYIPPKGETKKKFKDPNAPKRPPSAFFLFCSEYRPKIKGEHPGLSIGDVAKKLGEMWNNTAADDKQPYEKKAAKLKEKYEKDIAAYRAKGKPDAAKKGVVKAEKSKKKKEEEEDEEDEEDEEEEEDEEDEDEEEDDDDE
glycan array binding signal (z-score): -0.332
//
Binder: ECL (Erythrina cristagalli), Q6YD91 (protein) VETISFSFSEFEPGNNDLTLQGAAIITQSGVLQLTKINQNGMPAWDSTGRTLYTKPVHIWDMTTGTVASFETRFSFSIEQPYTRPLPADGLVFFMGPTKSKPAQGYGYLGVFNNSKQDNSYQTLAVEFDTFSNPWDPPQVPHIGIDVNSIRSIKTQPFQLDNGQVANVVIKYDASSKILLAVLVYPSSGAIYTIAEIVDVKQVLPEWVDVGLSGATGAQRDAAETHDVYSWSFHASLPETND
glycan array binding signal (z-score): -0.241
//
Binder: HPAIIITrx (Helix pomatia), Q1KM18 (protein) MLFVTIISLGLLAIVHGQCALKTIAFSAAIDREQTFDANQVVIYDIVITNHGNAYDNSTGLFTAPVDGMYSFQLNLLTIKEKEGWLELVHNGQLKVSVYAKQDSTYDSSSNSVIIKMKEGDRVNVRAHKKSGLFGRDDELYNTFSGHFLSGL
glycan array binding signal (z-score): 0.089

Attention now turns to another entry.
Req: Name the reported glycan array binding signal (z-score) value associated with the binder RegIIIbeta (Mus musculus), P35230 (protein) MLPPTACSVMSWMLLSCLMLLSQVQGEDSLKNIPSARISCPKGSQAYGSYCYALFQIPQTWFDAELACQKRPGGHLVSVLNSAEASFLSSMVKRTGNSYQYTWIGLHDPTLGAEPNGGGWEWSNNDVMNYFNWERNPSTALDRAFCGSLSRASGFLKWRDMTCEVKLPYVCKFTG
Resp: 0.086
